Please provide measured Cell penetration efficiency (TAMRA fluorescence), Electrooration - DW for the entries that follow.
System: E. coli DH5α cells
Test: Penetration efficiency of TAMRA-labeled CPPs, electroporation-based method, flow cytometry
Type: cell-based, Escherichia coli
Conditions: electrocompetent E. coli DH5α, 5 μg TAMRA-CPP, electroporation 1.8 kV, distilled water, 1 h, replicate 2
From the text: (Fig. 2a). […] First, we prepared electrocompetent and chemically competent cells.
Where no end group is shown, it is not given here.

input: Given the entry Penetratin (RQIKIWFPNRRMKWKK; also: TAMRA label, site not given here) [CPP 17, TAMRA-labeled CPP of the 98-CPP library, one of five used to evaluate delivery methods] , report its measured Cell penetration efficiency (TAMRA fluorescence), Electrooration - DW.
output: 587.6 A.U.

input: Given the entry R9-TAT (GRRRRRRRRRPPQ; also: TAMRA label, site not given here) [CPP 14, TAMRA-labeled CPP of the 98-CPP library, one of five used to evaluate delivery methods] , report its measured Cell penetration efficiency (TAMRA fluorescence), Electrooration - DW.
output: 655.834 A.U.

input: Given the entry ppTG1 (GLFKALLKLLKSLWKLLLKA; also: TAMRA label, position not given here) [CPP 16, TAMRA-labeled CPP of the 98-CPP library, one of five used to evaluate delivery methods] , report its measured Cell penetration efficiency (TAMRA fluorescence), Electrooration - DW.
output: 316.678 A.U.

input: Given the entry Rev(34-50) (TRQARRNRRRRWRERQR; also: TAMRA label, site not given here) [CPP 15, TAMRA-labeled CPP of the 98-CPP library, one of five used to evaluate delivery methods] , report its measured Cell penetration efficiency (TAMRA fluorescence), Electrooration - DW.
output: 531.205 A.U.

Values were extracted from paper PMC7884711.
